Consider the following molecules; for each one, report its EC50.
Molecular target: full length Keap1 protein / full length NRF2 protein (Homo sapiens)
Construct: full length NRF2 protein and full length Keap1 protein (Keap1 exists a dimer) are used; His
Sequence (Q14145 whole entry): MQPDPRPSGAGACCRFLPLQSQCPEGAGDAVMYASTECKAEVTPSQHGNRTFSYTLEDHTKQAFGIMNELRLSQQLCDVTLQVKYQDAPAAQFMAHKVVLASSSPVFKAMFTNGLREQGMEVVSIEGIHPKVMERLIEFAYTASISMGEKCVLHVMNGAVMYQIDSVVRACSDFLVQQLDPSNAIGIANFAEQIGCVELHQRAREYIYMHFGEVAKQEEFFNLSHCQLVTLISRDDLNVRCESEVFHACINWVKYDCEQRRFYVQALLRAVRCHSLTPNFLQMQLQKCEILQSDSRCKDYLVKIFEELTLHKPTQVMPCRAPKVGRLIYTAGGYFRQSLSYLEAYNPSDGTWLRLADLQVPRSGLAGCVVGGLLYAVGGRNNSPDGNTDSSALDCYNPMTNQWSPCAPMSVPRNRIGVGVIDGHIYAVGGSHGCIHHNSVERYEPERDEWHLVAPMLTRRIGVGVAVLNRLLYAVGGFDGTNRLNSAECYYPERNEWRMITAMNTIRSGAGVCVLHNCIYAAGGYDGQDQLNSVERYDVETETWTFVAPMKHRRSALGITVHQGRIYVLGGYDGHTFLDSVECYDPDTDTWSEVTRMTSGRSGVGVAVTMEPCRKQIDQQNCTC
Assay: NRF2-Keap1 TR-FRET Low Protein Assay
Format: binding
Where a name gives a salt, the structure may show the parent alone.

q: Using the record for COc1ccc(Br)cc1S(=O)(=O)N(C)Cc1cccc(-n2ncc(C(=O)O)c2[C@@H]2C[C@H]2c2cn(C)nn2)c1 (racemic) , state its measured EC50.
a: 1 to 10 µM

q: Using the record for Cn1cc([C@@H]2C[C@H]2c2c(C(=O)O)cnn2-c2cccc(CN3Cc4ccccc4OC(C)(C)C3)c2)nn1 (racemic) , state its measured EC50.
a: 0.1 to 1 µM

q: Using the record for "C[C@H]1Cc2ccccc2S(=O)(=O)N(Cc2cccc(-n3ncc(C(=O)O)c3[C@@H]3C[C@H]3c3cn(C)nn3)c2)C1" , state its measured EC50.
a: 0.1 to 1 µM

q: Using the record for Cc1cc([C@@H]2C[C@H]2c2c(C(=O)O)cnn2-c2cccc(CN3C[C@@H](C)Cc4cc(C(F)(F)F)ccc4S3(=O)=O)c2)on1 (racemic) , state its measured EC50.
a: 1 to 10 µM

q: Using the record for C[C@@H]1Cc2cc(C(F)(F)F)ccc2S(=O)(=O)N(Cc2cccc(-n3ncc(C(=O)O)c3[C@@H]3C[C@H]3c3cn(C)nn3)c2)C1 (racemic) , state its measured EC50.
a: 0.01 to 0.1 µM

q: Using the record for CCOc1ccc(Br)cc1CN(C)Cc1cccc(-n2ncc(C(=O)O)c2[C@@H]2C[C@H]2c2cn(C)nn2)c1 (racemic) [Example 54, trifluoroacetate] , state its measured EC50.
a: 1 to 10 µM

---

Consider the following molecules; for each one, report its EC50.
Target: Keap1 (321-609) Kelch domain / TAMRA-labeled NRF2 peptide (ETGE motif) (Homo sapiens, UniProt Q14145)
Construct: the Kelch domain (321-609) of Keap1 is used
Sequence (Q14145 321-609): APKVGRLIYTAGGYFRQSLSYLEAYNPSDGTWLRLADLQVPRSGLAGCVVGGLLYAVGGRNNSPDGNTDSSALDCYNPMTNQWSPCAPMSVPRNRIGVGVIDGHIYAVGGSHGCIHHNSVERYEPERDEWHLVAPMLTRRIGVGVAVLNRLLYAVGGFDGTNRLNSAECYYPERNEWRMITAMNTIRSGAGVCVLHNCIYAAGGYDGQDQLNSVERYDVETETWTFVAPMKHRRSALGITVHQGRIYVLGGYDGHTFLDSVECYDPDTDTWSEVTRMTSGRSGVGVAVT
Experiment: NRF2-Keap1 FP Assay
Format: binding
Conditions: Keap1 (321-609) 20 nM, Tamra labeled peptide 8 nM

q: Using the record for COc1ccc(Br)cc1S(=O)(=O)N(C)Cc1cccc(-n2ncc(C(=O)O)c2[C@@H]2C[C@H]2c2cn(C)nn2)c1 (racemic) , state its measured EC50.
a: 100 to 1000 nM

q: Using the record for "CC[C@@H]1CN(Cc2cccc(-n3ncc(C(=O)O)c3[C@@H]3C[C@H]3c3cnn(C)c3)c2)S(=O)(=O)c2ccccc2O1" , state its measured EC50.
a: 100 to 1000 nM

q: Using the record for COc1ccccc1S(=O)(=O)N(C)C1CCc2ccc(-n3ncc(C(=O)O)c3[C@@H]3C[C@H]3c3cn(C)nn3)cc21 (some centres unmarked) , state its measured EC50.
a: 1000 to 10000 nM

q: Using the record for "CC[C@@H]1CN(Cc2cccc(-n3ncc(C(=O)O)c3[C@@H]3C[C@H]3c3cn(C)nn3)c2)S(=O)(=O)c2ccccc2O1" , state its measured EC50.
a: 1 to 10 nM

q: Using the record for CN(Cc1cccc(-n2ncc(C(=O)O)c2[C@@H]2C[C@H]2c2cn(C)nn2)c1)S(=O)(=O)c1cccc2cccnc12 (racemic) , state its measured EC50.
a: 100 to 1000 nM

q: Using the record for "C[C@H]1Cc2cc(C(F)(F)F)ccc2S(=O)(=O)N(Cc2cccc(-n3ncc(C(=O)O)c3[C@@H]3C[C@H]3c3cnn(C)c3)c2)C1" , state its measured EC50.
a: 10 to 100 nM

q: Using the record for C[C@H]1Cc2ccc(Br)cc2S(=O)(=O)N(Cc2cccc(-n3ncc(C(=O)O)c3[C@@H]3C[C@H]3c3cn(C)nn3)c2)C1 (racemic) , state its measured EC50.
a: 1 to 10 nM

q: Using the record for CC(c1cccc(-n2ncc(C(=O)O)c2[C@@H]2C[C@H]2c2cn(C)nn2)c1)N1C[C@@H](C)Cc2ccc(C(F)(F)F)cc2S1(=O)=O (single isomer, unassigned) , state its measured EC50.
a: 1 to 10 nM

q: Using the record for CCCCCCN(Cc1cccc(-n2ncc(C(=O)O)c2[C@@H]2C[C@H]2c2cn(C)nn2)c1)S(=O)(=O)c1ccc(Oc2ccccc2)cc1 (relative stereo) , state its measured EC50.
a: 10 to 100 nM

q: Using the record for "C[C@@H]1Cc2cc(C(F)(F)F)ccc2S(=O)(=O)N(Cc2cccc(-n3ncc(C(=O)O)c3[C@@H]3C[C@H]3c3cnn(C)c3)c2)C1" , state its measured EC50.
a: 1000 to 10000 nM

q: Using the record for Cn1cc([C@@H]2C[C@H]2c2c(C(=O)O)cnn2-c2cccc(CN3Cc4ccccc4CC(C)(C)C3)c2)nn1 (racemic) , state its measured EC50.
a: 10 to 100 nM

q: Using the record for "C[C@H]1Cc2ccccc2S(=O)(=O)N(Cc2cccc(-n3ncc(C(=O)O)c3[C@@H]3C[C@H]3c3cnn(C)c3)c2)C1" , state its measured EC50.
a: 100 to 1000 nM

q: Using the record for Cn1cc([C@@H]2C[C@H]2c2c(C(=O)O)cnn2-c2cccc(CN3Cc4ncccc4OC(C)(C)C3)c2)nn1 (racemic) , state its measured EC50.
a: 10 to 100 nM

q: Using the record for "CC[C@@H]1CN(Cc2cccc(-n3ncc(C(=O)O)c3[C@@H]3C[C@H]3c3cn(CC(F)(F)F)nn3)c2)S(=O)(=O)c2ccccc2O1" , state its measured EC50.
a: 1 to 10 nM

q: Using the record for CCCCCCN(Cc1cccc(-n2ncc(C(=O)O)c2[C@@H]2C[C@H]2c2cn(C)nn2)c1)S(=O)(=O)c1cccc(-c2ccccc2)c1 (racemic) , state its measured EC50.
a: 1 to 10 nM

q: Using the record for "CC[C@H]1Cc2ccccc2S(=O)(=O)N(Cc2cccc(-n3ncc(C(=O)O)c3[C@@H]3C[C@H]3c3cn(C)nn3)c2)C1" , state its measured EC50.
a: 1 to 10 nM

q: Using the record for CN(Cc1cccc(-n2ncc(C(=O)O)c2[C@@H]2C[C@H]2c2cn(C)nn2)c1)S(=O)(=O)c1ccccc1OC(F)(F)F (racemic) , state its measured EC50.
a: 100 to 1000 nM

q: Using the record for C[C@H]1Cc2cc(C(F)(F)F)ccc2S(=O)(=O)N(Cc2cccc(-n3ncc(C(=O)O)c3[C@@H]3C[C@H]3c3cn(C)nn3)c2)C1 (racemic) , state its measured EC50.
a: 100 to 1000 nM

q: Using the record for CCCCCCN(Cc1cccc(-n2ncc(C(=O)O)c2[C@@H]2C[C@H]2c2cn(C)nn2)c1)S(=O)(=O)c1ccccc1Oc1ccccc1 (racemic) , state its measured EC50.
a: 100 to 1000 nM

q: Using the record for CCCCCCN(Cc1cccc(-n2ncc(C(=O)O)c2[C@@H]2C[C@H]2c2cnn(C)c2)c1)S(=O)(=O)c1ccccc1C (racemic) , state its measured EC50.
a: 1000 to 10000 nM

---

Target: Keap1 (321-609) Kelch domain / TAMRA-labeled NRF2 peptide (ETGE motif) (Homo sapiens, UniProt Q14145)
Construct: the Kelch domain (321-609) of Keap1 is used
Test: NRF2-Keap1 FP Assay
Conditions: Keap1 (321-609) 20 nM, Tamra labeled peptide 8 nM
Excerpt: One model for the NRF2-Keap1 interaction is through two binding sites in the Neh2 domain on NRF2. The two sites are referred to as the DLG binding motif (latch domain, uM affinity) and the ETGE binding motif (hinge domain, nM affinity). […] In the Keap1 Kelch fluorescence polarization (FP) assay, a TAMRA-labeled 16mer peptide (AFFAQLQLDEETGEFL) containing the ETGE motif of NRF2 and the Kelch domain (321-609) of Keap1 is used. […]
pEC50: −log10 of the molar value.
Consider the following molecules; for each one, report its pEC50.

q: Using the record for "CC[C@@H]1CN(Cc2cc(-n3ncc(C(=O)O)c3[C@@H]3C[C@H]3c3cn(C)nn3)ccc2C)Cc2ccccc2O1" , state its measured pEC50.
a: 6.00 to 7.00

q: Using the record for Cn1cc([C@@H]2C[C@H]2c2c(C(=O)O)cnn2-c2cccc(CN3CC(C)(C)Oc4ccc(F)cc4S3(=O)=O)c2)nn1 (racemic) , state its measured pEC50.
a: 8.00 to 9.00

q: Using the record for "CCCC[C@H]1Cc2ccc(C(F)(F)F)cc2S(=O)(=O)N(Cc2cccc(-n3ncc(C(=O)O)c3[C@@H]3C[C@H]3c3cn(C)nn3)c2)C1" , state its measured pEC50.
a: > 9.00

---

Tested on: NQO1 specific enzyme activity in BEAS-2B cells
Test: BEAS-2B NQO1 MTT Assay
Assay type: cell-based
Details: Homo sapiens; NQO1 specific activity induction, BEAS-2B cells, 48 hours; read-out: EC50
Structures can show the parent of a compound that is named as a salt.
Consider the following compounds; for each one, report its EC50.

q: Using the record for "C[C@@H]1Cc2cc(C(F)(F)F)ccc2S(=O)(=O)N(Cc2cccc(-n3ncc(C(=O)O)c3[C@@H]3C[C@H]3c3cnn(C)c3)c2)C1" , state its measured EC50.
a: 1000 to 10000 nM

q: Using the record for "CC[C@H]1Cc2ccc(C(F)(F)F)cc2S(=O)(=O)N(Cc2cccc(-n3ncc(C(=O)O)c3[C@@H]3C[C@H]3c3cn(C)nn3)c2)C1" , state its measured EC50.
a: 1 to 10 nM

q: Using the record for "CC[C@H]1Cc2ccccc2CN(Cc2cccc(-n3ncc(C(=O)O)c3[C@@H]3C[C@H]3c3cn(C)nn3)c2)C1" , state its measured EC50.
a: 1000 to 10000 nM

q: Using the record for "CC[C@H]1Cc2ccccc2S(=O)(=O)N(Cc2cccc(-n3ncc(C(=O)O)c3[C@@H]3C[C@H]3c3cn(C)nn3)c2)C1" , state its measured EC50.
a: 100 to 1000 nM

q: Using the record for Cn1cc([C@@H]2C[C@H]2c2c(C(=O)O)cnn2-c2cccc(CN3Cc4cc(Br)ccc4OC(C)(C)C3)c2)nn1 (racemic) , state its measured EC50.
a: 100 to 1000 nM

q: Using the record for C[C@H]1Cc2ccc(Br)cc2S(=O)(=O)N(Cc2cccc(-n3ncc(C(=O)O)c3[C@@H]3C[C@H]3c3cn(C)nn3)c2)C1 (racemic) , state its measured EC50.
a: 100 to 1000 nM

q: Using the record for CCCCCCN(Cc1cccc(-n2ncc(C(=O)O)c2[C@@H]2C[C@H]2c2cn(C)nn2)c1)S(=O)(=O)c1ccccc1C (racemic) , state its measured EC50.
a: 10 to 100 nM

q: Using the record for CCOc1ccc(Br)cc1CN(C)Cc1cccc(-n2ncc(C(=O)O)c2[C@@H]2C[C@H]2c2cn(C)nn2)c1 (racemic) [Example 54, trifluoroacetate] , state its measured EC50.
a: 100 to 1000 nM

q: Using the record for CN(Cc1cccc(-n2ncc(C(=O)O)c2[C@@H]2C[C@H]2c2cn(C)nn2)c1)S(=O)(=O)c1ccccc1OC(F)(F)F (racemic) , state its measured EC50.
a: 1000 to 10000 nM

q: Using the record for "CC[C@@H]1CN(Cc2cccc(-n3ncc(C(=O)O)c3[C@@H]3C[C@H]3c3cn(CC(F)(F)F)nn3)c2)S(=O)(=O)c2ccccc2O1" , state its measured EC50.
a: 100 to 1000 nM

q: Using the record for CCCCCCN(Cc1cccc(-n2ncc(C(=O)O)c2[C@@H]2C[C@H]2c2cn(C)nn2)c1)S(=O)(=O)c1ccc(Oc2ccccc2)cc1 (relative stereo) , state its measured EC50.
a: 100 to 1000 nM

q: Using the record for "CC[C@@H]1CN(Cc2cccc(-n3ncc(C(=O)O)c3[C@@H]3C[C@H]3c3cnn(C)c3)c2)S(=O)(=O)c2ccccc2O1" , state its measured EC50.
a: 1000 to 10000 nM

q: Using the record for C[C@H]1Cc2ccc(C(F)(F)F)cc2S(=O)(=O)N([C@@H]2CCc3c2cccc3-n2ncc(C(=O)O)c2[C@@H]2C[C@H]2c2cn(C)nn2)C1 [Example 26b] , state its measured EC50.
a: 1000 to 10000 nM

q: Using the record for CCOc1ccccc1S(=O)(=O)N(C)Cc1cccc(-n2ncc(C(=O)O)c2[C@@H]2C[C@H]2c2cn(C)nn2)c1 (racemic) , state its measured EC50.
a: 1000 to 10000 nM

q: Using the record for CCC1c2ccccc2OC(C)(C)CN1Cc1cccc(-n2ncc(C(=O)O)c2[C@@H]2C[C@H]2c2cn(C)nn2)c1 (stereo partly drawn) , state its measured EC50.
a: 1000 to 10000 nM

q: Using the record for Cn1cc([C@@H]2C[C@H]2c2c(C(=O)O)cnn2-c2cccc(CN3CC(C)(C)Oc4ccc(F)cc4S3(=O)=O)c2)nn1 (racemic) , state its measured EC50.
a: 1000 to 10000 nM

q: Using the record for CC(c1cccc(-n2ncc(C(=O)O)c2[C@@H]2C[C@H]2c2cn(C)nn2)c1)N1C[C@@H](C)Cc2ccc(C(F)(F)F)cc2S1(=O)=O (single isomer, unassigned) , state its measured EC50.
a: 100 to 1000 nM

q: Using the record for CCCCCCN(Cc1cccc(-n2ncc(C(=O)O)c2[C@@H]2C[C@H]2c2cnn(C)c2)c1)S(=O)(=O)c1ccccc1C (racemic) , state its measured EC50.
a: 100 to 1000 nM

q: Using the record for C[C@@H]1Cc2cc(C(F)(F)F)ccc2S(=O)(=O)N(Cc2cccc(-n3ncc(C(=O)O)c3[C@@H]3C[C@H]3c3cn(C)nn3)c2)C1 (racemic) , state its measured EC50.
a: 10 to 100 nM

q: Using the record for C[C@H]1Cc2ccc(C(F)(F)F)cc2S(=O)(=O)N([C@H]2CCc3c2cccc3-n2ncc(C(=O)O)c2[C@@H]2C[C@H]2c2cn(C)nn2)C1 [Example 26a] , state its measured EC50.
a: 100 to 1000 nM

q: Using the record for Cc1ccccc1S(=O)(=O)N(C)Cc1cccc(-n2ncc(C(=O)O)c2[C@@H]2C[C@H]2c2cn(C)nn2)c1 (racemic) , state its measured EC50.
a: 1000 to 10000 nM

q: Using the record for CCCCCCN(Cc1cccc(-n2ncc(C(=O)O)c2[C@@H]2C[C@H]2c2cn(C)nn2)c1)S(=O)(=O)c1cccc(-c2ccccc2)c1 (racemic) , state its measured EC50.
a: 10 to 100 nM

q: Using the record for "CC[C@@H]1CN(Cc2cc(-n3ncc(C(=O)O)c3[C@@H]3C[C@H]3c3cn(C)nn3)ccc2C)Cc2ccccc2O1" , state its measured EC50.
a: 100 to 1000 nM

q: Using the record for "C[C@H]1Cc2ccccc2S(=O)(=O)N(Cc2cccc(-n3ncc(C(=O)O)c3[C@@H]3C[C@H]3c3cn(C)nn3)c2)C1" , state its measured EC50.
a: 1000 to 10000 nM
